Test system Cytochrome P450 2C19 (Homo sapiens), IC50 listed for each of the compounds.

> print(dat)
                                   compound  observation.type  observed
1  Cc1cc2c(F)c(Oc3ncnn4cc(OC[C@@H](C)OC(=O)CN)c(C)c34)ccc2[nH]1              IC50    160 nM

Hi! What's the reported IC50 for Cc1cc2c(F)c(Oc3ncnn4cc(OC[C@@H](C)OC(=O)C(N)CC(C)C)c(C)c34)ccc2[nH]1 (single isomer, unassigned) on Cytochrome P450 2C19 (Homo sapiens)? 1800 nM

* * *

- ASSAY_SUMMARY: AUC (0 to 4 hrs) in mouse at 50 mg/kg, po
- Assay type: ADME, organism-based
- Set-up: time < 4 hr, dose 50 mg/kg, route oral
- CONDITION_NOTES: plasma
AUC(0-t) at 4 h by entry:
Supply the numeric figure in µM·h, leaving out any unit text.

Bench note: what AUC(0-t) at 4 h did Cc1cc2c(F)c(Oc3ncnn4cc(OC[C@@H](C)OC(=O)C(N)CC(C)C)c(C)c34)ccc2[nH]1 (single isomer, unassigned) show? 113
